target: human GLP-1 receptor (human, UniProt P43220 24-463); assay: cell-based or functional assay
Bridges are numbered along the chain shown (N, C = ends). Where no end group is shown, it is not given here. [ ]: non-standard residue; d: D form. Aib = CC(C)(N)C(=O)O
property: in vitro Activity Compared to Native Peptide (%), vs GLP-1

# binder, reportedResult
measured = [
    ("H[Aib]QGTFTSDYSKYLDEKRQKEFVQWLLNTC (bridge 16-20; not fully specified (C-terminus)) [triple agonist of SEQ ID NO: 51]", 14.4),
    ("Y[Aib]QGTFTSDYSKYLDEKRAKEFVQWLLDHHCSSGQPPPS-NH2 (bridge 16-20) [triple agonist of SEQ ID NO: 43]", 12.6),
    ("Y[Aib]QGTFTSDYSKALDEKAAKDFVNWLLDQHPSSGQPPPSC (bridge 16-20; not fully specified (C-terminus); also: ring type not given here) [triple agonist of SEQ ID NO: 102]", 23.3),
    ("H[Aib]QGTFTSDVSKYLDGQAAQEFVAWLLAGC (not fully specified (C-terminus)) [triple agonist of SEQ ID NO: 9]", 32.1),
    ("H[Aib]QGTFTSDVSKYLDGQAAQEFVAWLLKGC (not fully specified (C-terminus)) [triple agonist of SEQ ID NO: 8]", 14.2),
]
